tested on: Plasmodium falciparum; assay: GSK_TCMDC: Inhibition of Plasmodium falciparum Dd2 in whole red blood cells, using parasite LDH activity as an index of growth. Test compounds present at 2uM; format: functional
property-label: Inhibition (%)
Answer with a number only, understood to be in %.

Check out these entries, answers already filled in.
{"molecule-smiles": "N=C(N)NC(=O)Nc1cc(Br)c(Br)c(Br)c1", "result": 89}
{"molecule-smiles": "CN1CCN(CCCN(Cc2csc(-c3ccc(CNCc4ccccc4)cc3)n2)C(=O)Nc2cccc(Cl)c2)CC1.O=C(O)C(F)(F)F", "result": 67}
{"molecule-smiles": "CC(C)CCN1CCCN(Cc2ccc(C(=O)NCc3ccc(Cl)cc3)cc2)CC1.O=C(O)C(F)(F)F", "result": 0}
{"molecule-smiles": "Cl.c1ccc2c(C3CCN(CCCCOc4ccc5c(c4)CCN(C4CCC4)CC5)CC3)c[nH]c2c1", "result": 100}

For CC(C)n1c(CC2CCN(CC3CCN(C(=O)/C=C/c4ccc(Cl)c(Cl)c4)CC3)CC2)nc2ccccc21 , what is its reported Inhibition?
23
